B1: Hairpin Ribozyme (parent)
chain: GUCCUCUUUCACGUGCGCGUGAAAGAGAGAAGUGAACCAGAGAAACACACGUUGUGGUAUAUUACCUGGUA

- Variants of: B1
- assay-summary: self-cleavage, relative activity (ratio to wild type); higher = more cleavage; co-transcriptional
Readings of self-cleavage for the listed variants
Just the number.

Worked cases, self-cleavage given:
A24U G54A	0.472
C48A	0.157
C18A A35U	0.734

Ask: Sample A26C U33G — what was its self-cleavage?
Result: 0.0995

Ask: What does the record list as self-cleavage for G25A G40A ?
Result: 0.191

Ask: Could you share which self-cleavage value was measured for U8G G17C ?
Result: 0.23

Ask: Need self-cleavage of C38G U53G , thanks.
Result: 0.206

Ask: Returns the measured self-cleavage for the input variant. Input: A24U G68A
Result: 0.361

Ask: Quick check: self-cleavage of C16A U62A ?
Result: 0.199

Ask: Entry A26C U58G has what self-cleavage?
Result: 0.496

Ask: May I ask what self-cleavage has been recorded for U33G A64C ?
Result: 0.0723
